Assay remarks: Cytotoxicity against human astrocytes incubated for 3 hrs by MTT assay
Type: toxicity, cell-based, Astrocyte
Recorded metric: IC50 at 3 h (µM)
Supply the numeric figure in µM, leaving out any unit text.

Q: Return reported IC50 at 3 h; argument: O=S(=O)(c1cccc(N2CCNCC2)c1)n1cccc1-c1cccc(F)c1
Ans: 39.3

###

Target or system: CYP3A4 (Homo sapiens)
Sequence (P08684 whole entry): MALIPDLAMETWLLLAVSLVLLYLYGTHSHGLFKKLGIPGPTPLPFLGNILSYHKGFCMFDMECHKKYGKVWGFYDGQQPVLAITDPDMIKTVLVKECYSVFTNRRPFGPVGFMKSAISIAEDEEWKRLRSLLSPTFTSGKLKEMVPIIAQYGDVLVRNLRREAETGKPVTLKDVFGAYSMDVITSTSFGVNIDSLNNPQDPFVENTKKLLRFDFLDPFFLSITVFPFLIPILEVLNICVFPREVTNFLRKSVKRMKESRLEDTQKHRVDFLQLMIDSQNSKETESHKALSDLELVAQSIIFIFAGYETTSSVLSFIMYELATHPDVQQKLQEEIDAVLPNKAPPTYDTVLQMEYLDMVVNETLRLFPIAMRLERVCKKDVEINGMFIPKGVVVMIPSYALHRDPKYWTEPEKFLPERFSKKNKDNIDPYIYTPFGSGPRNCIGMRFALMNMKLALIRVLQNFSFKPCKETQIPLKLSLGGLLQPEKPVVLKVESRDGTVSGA
Assay remarks: Inhibition of CYP3A4 (unknown origin) at 10 uM relative to control
Format: ADME
Recorded metric: inhibition at 10 µM (%)
Please reply with the bare figure in % and do not write the unit itself.

Q: Missing value: inhibition at 10 µM, CYP3A4 (Homo sapiens), entry O=S(=O)(c1cccc(N2CCNCC2)c1)n1cccc1-c1cccc(F)c1 . Fill in?
Ans: 94

###

Target or system D(2) dopamine receptor (Homo sapiens, UniProt P14416): recorded pKi listed per item.
Recall that pKi is obtained by taking minus log10 of the concentration measured in molar.

Q: Quick check: pKi on D(2) dopamine receptor (Homo sapiens, UniProt P14416), item O=S(=O)(c1ccccc1)n1cccc1-c1cccc(N2CCNCC2)c1 ?
Ans: 5.57

Q: Fill in the recorded pKi for this molecule, with D(2) dopamine receptor (Homo sapiens, UniProt P14416) as test system: O=S(=O)(c1cccc(N2CCNCC2)c1)n1cccc1-c1ccccc1
Sequence (P14416 whole entry): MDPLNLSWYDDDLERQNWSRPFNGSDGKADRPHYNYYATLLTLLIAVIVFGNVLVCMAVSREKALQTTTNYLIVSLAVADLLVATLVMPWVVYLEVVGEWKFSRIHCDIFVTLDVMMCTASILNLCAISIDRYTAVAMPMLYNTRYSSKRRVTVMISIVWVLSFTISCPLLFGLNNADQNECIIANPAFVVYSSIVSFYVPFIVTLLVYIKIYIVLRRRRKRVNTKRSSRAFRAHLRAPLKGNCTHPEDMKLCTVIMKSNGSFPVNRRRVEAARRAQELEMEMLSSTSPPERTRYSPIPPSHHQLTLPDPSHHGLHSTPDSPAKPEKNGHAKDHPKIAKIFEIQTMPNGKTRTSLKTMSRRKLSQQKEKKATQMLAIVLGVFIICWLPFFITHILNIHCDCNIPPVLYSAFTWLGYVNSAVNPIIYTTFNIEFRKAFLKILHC
Ans: 5.66

Q: Identify the measured pKi of COc1cccc(-c2cccn2S(=O)(=O)c2cccc(N3CCNCC3)c2)c1 for D(2) dopamine receptor (Homo sapiens, UniProt P14416).
Ans: 5.28

###

# Ki measurements, system: 5-hydroxytryptamine receptor 6 (Homo sapiens)
# Sequence (P50406 whole entry): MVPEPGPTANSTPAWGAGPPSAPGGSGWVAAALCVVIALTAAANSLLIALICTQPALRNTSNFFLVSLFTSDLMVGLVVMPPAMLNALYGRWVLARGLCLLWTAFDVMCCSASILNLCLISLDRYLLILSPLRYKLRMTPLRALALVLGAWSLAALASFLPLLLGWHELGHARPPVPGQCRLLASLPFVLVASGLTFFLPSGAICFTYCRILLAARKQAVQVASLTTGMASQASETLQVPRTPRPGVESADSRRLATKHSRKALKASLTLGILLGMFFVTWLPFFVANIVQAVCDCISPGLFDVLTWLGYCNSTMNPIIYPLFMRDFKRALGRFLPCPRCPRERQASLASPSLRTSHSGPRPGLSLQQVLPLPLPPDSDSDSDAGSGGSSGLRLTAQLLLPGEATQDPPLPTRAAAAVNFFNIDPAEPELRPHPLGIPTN
State the answer as a number, implicitly in nM.

Q: Requested read-out: Ki. Entry: COc1cccc(-c2cccn2S(=O)(=O)c2cccc(N3CCNCC3)c2)c1
Ans: 1

Q: May I ask what Ki has been recorded for O=S(=O)(c1cccc(N2CCNCC2)c1)n1cccc1-c1cccc(F)c1 ?
Ans: 1

Q: Name the reported Ki value associated with the molecule O=S(=O)(c1ccccc1)n1cccc1-c1cccc(N2CCNCC2)c1
Ans: 27

Q: Would you kindly share the measured Ki for O=S(=O)(c1cccc(NC2CCNCC2)c1)n1cccc1-c1ccccc1 ?
Ans: 4

###

Assay remarks: in vitro
Study conditions: rat, microsomes
Recorded metric: microsomal CLint at 1 h, 10 µM (µL/min/mg)
Please respond with the number in µL/min/mg and leave the unit unwritten.

Q: Request the reported microsomal CLint at 1 h, 10 µM associated with O=S(=O)(c1cccc(NC2CCNCC2)c1)n1cccc1-c1ccccc1
Ans: 20.6

Q: Sample O=S(=O)(c1ccccc1)n1cccc1-c1cccc(N2CCNCC2)c1 — what was its microsomal CLint at 1 h, 10 µM?
Ans: 109

Q: What value of microsomal CLint at 1 h, 10 µM has been reported for the following molecule? O=S(=O)(c1cccc(N2CCNCC2)c1)n1cccc1-c1cccc(F)c1
Ans: 32.4

Q: Requested field: microsomal CLint at 1 h, 10 µM. Item: COc1cccc(-c2cccn2S(=O)(=O)c2cccc(N3CCNCC3)c2)c1
Ans: 56.7

Q: Can you share its microsomal CLint at 1 h, 10 µM? I mean this molecule: O=S(=O)(c1cccc(N2CCNCC2)c1)n1cccc1-c1ccccc1
Ans: 24.9

###

Assay remarks: Cytotoxicity against human SH-SY5Y cells incubated for 3 hrs by MTT assay
Assay type: toxicity, cell-based
Recorded metric: IC50 at 3 h (µM)
Respond with the bare value in µM.

Q: Please look up its IC50 at 3 h: O=S(=O)(c1cccc(N2CCNCC2)c1)n1cccc1-c1cccc(F)c1
Ans: 18.5
